Hi there, I'd appreciate the recorded viability, T/C for every entry that follows.
# System: 653999-131-R-J2-PDC complex spheroids, growth inhibition
# assay.protocol: Anticancer human tumor 653999-131-R-J2-PDC patient-derived lung adenocarcinoma cell line growth inhibition [RAS]
# condition.summary: second compound 0.3 µM; first compound 0.01 µM; stronger effect = lower value
Numbers only, in %.

Example entries and their recorded answers appear below.
* O=C(c1ccc(F)c(F)c1Nc1ccc(I)cc1F)N1CC(O)([C@@H]2CCCCN2)C1 + CCn1c(-c2cc(N3CCN(C)CC3)cnc2C(C)OC)c2c3cc(ccc31)-c1csc(n1)CC(NC(=O)C1CC1C)C(=O)N1CCCC(N1)C(=O)OCC(C)(C)C2 | 15
* CCN1CCN(Cc2ccc(Nc3ncc(F)c(-c4cc(F)c5nc(C)n(C(C)C)c5c4)n3)nc2)CC1 + CCn1c(-c2cc(N3CCN(C)CC3)cnc2C(C)OC)c2c3cc(ccc31)-c1csc(n1)CC(NC(=O)C1CC1C)C(=O)N1CCCC(N1)C(=O)OCC(C)(C)C2 | 24.7
* CC(C)n1nc(-c2ccc3oc(N)nc3c2)c2c(N)ncnc21 + CCn1c(-c2cccnc2C(C)OC)c2c3cc(ccc31)N1CCOC(CC(NC(=O)C(C(C)C)N(C)C(=O)C3(F)CCN(C(=O)C#CC(C)(C)N(C)C)CC3)C(=O)N3CCCC(N3)C(=O)OCC(C)(C)C2)C1 | 54.6

Let us examine a further case.
Field request: viability, T/C | item: Nc1ccn(C2OC(CO)C(O)C2(F)F)c(=O)n1 (centres undefined) + CCn1c(-c2cc(N3CCN(C)CC3)cnc2C(C)OC)c2c3cc(ccc31)-c1csc(n1)CC(NC(=O)C1CC1C)C(=O)N1CCCC(N1)C(=O)OCC(C)(C)C2
24.5

---

# Tested on: 653999-131-R-J2-PDC complex spheroids, growth inhibition
# assay.protocol: Anticancer human tumor 653999-131-R-J2-PDC cell line growth inhibition [RAS];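 also: spheroids exposed to the agents for seven days before the readout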
# condition.summary: second compound 0.1 µM; first compound 0.316 µM; stronger effect = lower value
readout: viability, T/C

Batch: viability, T/C for all items listed.
1. Nc1ccn(C2OC(CO)C(O)C2(F)F)c(=O)n1 (stereo not given) + C#Cc1c(F)ccc2cc(O)cc(-c3ncc4c(N5CC6CCC(C5)N6)nc(OCC56CCCN5CC(F)C6)nc4c3F)c12
2. Nc1ccn(C2OC(CO)C(O)C2(F)F)c(=O)n1 (stereo not given) + C=CC(=O)N1CCN(c2nc(OCC3CCCN3C)nc3c(F)c(-c4nc(N)cc(C)c4C(F)(F)F)c(Cl)cc23)C(C)C1
3. CCC(CC)c1cc(NC2CCC(N)C2)n2nccc2n1 (stereo not given) + C#Cc1c(F)ccc2cc(O)cc(-c3ncc4c(N5CC6CCC(C5)N6)nc(OCC56CCCN5CC(F)C6)nc4c3F)c12
4. CC(=O)OC12COC1CC(O)C1(C)C(=O)C(O)C3=C(C)C(OC(=O)C(O)C(NC(=O)OC(C)(C)C)c4ccccc4)CC(O)(C(OC(=O)c4ccccc4)C21)C3(C)C (stereo not given) + C#Cc1c(F)ccc2cc(O)cc(-c3ncc4c(N5CC6CCC(C5)N6)nc(OCC56CCCN5CC(F)C6)nc4c3F)c12
5. CCN1CCN(Cc2ccc(Nc3ncc(F)c(-c4cc(F)c5nc(C)n(C(C)C)c5c4)n3)nc2)CC1 + C#Cc1c(F)ccc2cc(O)cc(-c3ncc4c(N5CC6CCC(C5)N6)nc(OCC56CCCN5CC(F)C6)nc4c3F)c12

1: 34.6%; 2: 40.1%; 3: 93.1%; 4: 50.4%; 5: 54.8%

---

Hi there, I'd appreciate the recorded IC50 for every entry that follows.
# Test system: 653999-131-R-J2-PDC complex spheroids, growth inhibition
# assay.protocol: Anticancer human tumor 653999-131-R-J2-PDC cell line growth inhibition [RAS];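 also: spheroids exposed to the agents for seven days before the readout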
# condition.summary: curve of first compound; second compound 0.3 µM
# Source text: RAS pathway inhibitors in Combinations in Complex Spheroids A high-throughput screen of multi-cell type tumor spheroids was designed to identify active combinations of RAS pathway inhibitors and targeted small molecules. Complex spheroids include a stromal component modeled by human endothelial cells (HUVEC) and fibroblasts modeled by human mesenchymal stem cells (MSCs). […] Compounds. […] If the clinical Cmax for an agent had not been determined, the highest concentration tested was 10 microM. […]

Example entries and their recorded answers appear below.
• CC1(O)CCCC1n1c(=O)c(C(F)F)cc2cnc(NC3CCN(S(C)(=O)=O)CC3)nc21 (stereo not given) + CCn1c(-c2cccnc2C(C)OC)c2c3cc(ccc31)N1CCOC(CC(NC(=O)C(C(C)C)N(C)C(=O)C3(F)CCN(C(=O)C#CC(C)(C)N(C)C)CC3)C(=O)N3CCCC(N3)C(=O)OCC(C)(C)C2)C1 = 6620 nM
• C=CC(=O)Nc1cc(Nc2nccc(-c3cn(C)c4ccccc34)n2)c(OC)cc1N(C)CCN(C)C + CCn1c(-c2cc(N3CCN(C)CC3)cnc2C(C)OC)c2c3cc(ccc31)-c1csc(n1)CC(NC(=O)C1CC1C)C(=O)N1CCCC(N1)C(=O)OCC(C)(C)C2 = < 3.16 nM
• CCN1CCN(Cc2ccc(Nc3ncc(F)c(-c4cc(F)c5nc(C)n(C(C)C)c5c4)n3)nc2)CC1 + CCn1c(-c2cc(N3CCN(C)CC3)cnc2C(C)OC)c2c3cc(ccc31)-c1csc(n1)CC(NC(=O)C1CC1C)C(=O)N1CCCC(N1)C(=O)OCC(C)(C)C2 = < 3.16 nM
• O=C(c1ccc(F)c(F)c1Nc1ccc(I)cc1F)N1CC(O)([C@@H]2CCCCN2)C1 + CCn1c(-c2cc(N3CCN(C)CC3)cnc2C(C)OC)c2c3cc(ccc31)-c1csc(n1)CC(NC(=O)C1CC1C)C(=O)N1CCCC(N1)C(=O)OCC(C)(C)C2 = < 3.16 nM
• O=C(c1ccc(F)c(F)c1Nc1ccc(I)cc1F)N1CC(O)([C@@H]2CCCCN2)C1 + CCn1c(-c2cccnc2C(C)OC)c2c3cc(ccc31)N1CCOC(CC(NC(=O)C(C(C)C)N(C)C(=O)C3(F)CCN(C(=O)C#CC(C)(C)N(C)C)CC3)C(=O)N3CCCC(N3)C(=O)OCC(C)(C)C2)C1 = 82 nM
• C=CC(=O)N1CCN(c2nc(OCC3CCCN3C)nc3c(F)c(-c4nc(N)cc(C)c4C(F)(F)F)c(Cl)cc23)C(C)C1 (stereo not given) + CCn1c(-c2cc(N3CCN(C)CC3)cnc2C(C)OC)c2c3cc(ccc31)-c1csc(n1)CC(NC(=O)C1CC1C)C(=O)N1CCCC(N1)C(=O)OCC(C)(C)C2 = < 3.16 nM

Batch: IC50 for all items listed.
1. CCN1CCN(Cc2ccc(Nc3ncc(F)c(-c4cc(F)c5nc(C)n(C(C)C)c5c4)n3)nc2)CC1 + CCn1c(-c2cccnc2C(C)OC)c2c3cc(ccc31)N1CCOC(CC(NC(=O)C(C(C)C)N(C)C(=O)C3(F)CCN(C(=O)C#CC(C)(C)N(C)C)CC3)C(=O)N3CCCC(N3)C(=O)OCC(C)(C)C2)C1
2. CC(Nc1ccc2c(c1)OCCn1cc(N3C(=O)OCC3C(F)F)nc1-2)C(N)=O (stereo not given) + CCn1c(-c2cc(N3CCN(C)CC3)cnc2C(C)OC)c2c3cc(ccc31)-c1csc(n1)CC(NC(=O)C1CC1C)C(=O)N1CCCC(N1)C(=O)OCC(C)(C)C2
3. Nc1ccn(C2OC(CO)C(O)C2(F)F)c(=O)n1 (stereo not given) + CCn1c(-c2cccnc2C(C)OC)c2c3cc(ccc31)N1CCOC(CC(NC(=O)C(C(C)C)N(C)C(=O)C3(F)CCN(C(=O)C#CC(C)(C)N(C)C)CC3)C(=O)N3CCCC(N3)C(=O)OCC(C)(C)C2)C1
4. CC1(C)CCC(Nc2ncc(C(F)(F)F)c(-c3c[nH]c4c(P(C)(C)=O)c(C#N)ccc34)n2)CN1 (stereo not given) + CCn1c(-c2cccnc2C(C)OC)c2c3cc(ccc31)N1CCOC(CC(NC(=O)C(C(C)C)N(C)C(=O)C3(F)CCN(C(=O)C#CC(C)(C)N(C)C)CC3)C(=O)N3CCCC(N3)C(=O)OCC(C)(C)C2)C1

1. > 1000 nM
2. < 31.6 nM
3. 59.3 nM
4. > 300 nM

---

Hi there, I'd appreciate the recorded viability, T/C for every entry that follows.
# Tested on: 653999-131-R-J2-PDC complex spheroids, growth inhibition
# assay.protocol: Anticancer human tumor 653999-131-R-J2-PDC cell line growth inhibition [RAS];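 also: spheroids exposed to the agents for seven days before the readout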
# condition.summary: second compound 0.1 µM; first compound 0.0316 µM; stronger effect = lower value
Answers are plain numbers, in %.

Example entries and their recorded answers appear below.
* C[C@@H](NC(=O)c1ncnc(N)c1Cl)c1ncc(C(=O)Nc2cc(C(F)(F)F)c(Cl)cn2)s1 + C#Cc1c(F)ccc2cc(O)cc(-c3ncc4c(N5CC6CCC(C5)N6)nc(OCC56CCCN5CC(F)C6)nc4c3F)c12 | 91
* NC1c2ccccc2OC12CCN(c1cnc3c(N4CCCc5ncccc54)n[nH]c3n1)CC2 (stereo not given) + C=CC(=O)N1CCN(c2nc(OCC3CCCN3C)nc3c(F)c(-c4nc(N)cc(C)c4C(F)(F)F)c(Cl)cc23)C(C)C1 | 97.8
* C[C@@H](NC(=O)c1ncnc(N)c1Cl)c1ncc(C(=O)Nc2cc(C(F)(F)F)c(Cl)cn2)s1 + C=CC(=O)N1CCN(c2nc(OCC3CCCN3C)nc3c(F)c(-c4nc(N)cc(C)c4C(F)(F)F)c(Cl)cc23)C(C)C1 | 105
* CC(C)NCC(C(=O)N1CCN(c2ncnc3c2C(C)CC3O)CC1)c1ccc(Cl)cc1 (stereo not given) + C=CC(=O)N1CCN(c2nc(OCC3CCCN3C)nc3c(F)c(-c4nc(N)cc(C)c4C(F)(F)F)c(Cl)cc23)C(C)C1 | 104

Let us examine a further case.
Field request: viability, T/C | item: Nc1ccn(C2OC(CO)C(O)C2(F)F)c(=O)n1 (stereo not given) + C=CC(=O)N1CCN(c2nc(OCC3CCCN3C)nc3c(F)c(-c4nc(N)cc(C)c4C(F)(F)F)c(Cl)cc23)C(C)C1
55.7
